Ref: paper PMC12040169

# ASSAY_METHOD_TEXT: in vitro
# CONDITION_SUMMARY: human, hela cells, % viability
VALUE_KIND: viability at 28.5 h, 10 µM (%)
Dear colleague, please return just the value in %, with no unit written.

### Prompt Data request, read-out viability at 28.5 h, 10 µM, for CN1C(=O)CC2(C1=O)C(=O)N(CCCCOc1ccccc1)c1ccc(F)cc12 (stereo not drawn)
### Response 96

### Prompt Data request, read-out viability at 28.5 h, 10 µM, for `Cc1nnc(SCc2cccc(Oc3ccccc3)c2)n1N`
### Response 104

### Prompt Data request, read-out viability at 28.5 h, 10 µM, for `COc1ccc(CNC(=O)N2CCN(c3ccccc3OC)CC2)cc1OC`
### Response 89.2

### Prompt Data request, read-out viability at 28.5 h, 10 µM, for `O=S(=O)(c1ccc(F)cc1F)N1CCN(Cc2ccc3c(c2)OCO3)CC1`
### Response 91.7

### Prompt Data request, read-out viability at 28.5 h, 10 µM, for `CN(C)CCNC(=O)c1cccc(Oc2ccccc2)c1`
### Response 83.1

### Prompt Data request, read-out viability at 28.5 h, 10 µM, for `Cn1c(-c2ccccc2)cnc1NC(=O)CC1CCN(C(=O)Cc2ccccc2)CC1`
### Response 96.9

====

# ASSAY_METHOD_TEXT: in vitro
# CONDITION_SUMMARY: human, hela cells, % viability
Would you mind telling me the reported viability at 28.5 h, 10 µM of each entry?
Dear colleague, please return just the value in %, with no unit written.

### Prompt Data request, read-out viability at 28.5 h, 10 µM, for CNC(=O)c1sc2ccccc2c1C1CCN(C(=O)CCN(C)c2ccc(F)cc2)C1 (stereo not drawn) [CBK285878]
### Response 96.5

### Prompt Data request, read-out viability at 28.5 h, 10 µM, for CC(C)c1nc(CC(=O)NCCC(=O)N2CCCc3ccccc32)cs1 [CBK305437]
### Response 98.1

### Prompt Data request, read-out viability at 28.5 h, 10 µM, for Cc1c(C(=O)O)sc2nc3c(Cl)cc(C(=O)c4ccccc4O)cn3c(=O)c12 [CBK295619]
### Response 98.5

### Prompt Data request, read-out viability at 28.5 h, 10 µM, for Nc1cc(O)nc(SCC(=O)N2CCN(c3ccccc3)CC2)n1 [CBK267925]
### Response 86

### Prompt Data request, read-out viability at 28.5 h, 10 µM, for COc1cc(C2c3c(-c4cc(C)c(C)cc4O)n[nH]c3C(=O)N2CCO)cc(Br)c1O (stereo not drawn) [CBK269009]
### Response 112

### Prompt Data request, read-out viability at 28.5 h, 10 µM, for O=C(OCc1cc([N+](=O)[O-])cc2c1OCOC2)c1ccco1 [CBK297537]
### Response 97.9

### Prompt Data request, read-out viability at 28.5 h, 10 µM, for O=C(NCc1ccc(Cl)cc1)c1c(O)c2cc(NS(=O)(=O)c3ccccc3)ccc2[nH]c1=O [CBK017589]
### Response 94.4

### Prompt Data request, read-out viability at 28.5 h, 10 µM, for CC(NC(=O)C1CCN(Cc2cccs2)CC1)c1ccc(F)cc1 (stereo not drawn) [CBK148041]
### Response 101

### Prompt Data request, read-out viability at 28.5 h, 10 µM, for CC(=O)c1cnc2nc(-c3cccnc3)nn2c1C [CBK287859]
### Response 112
